The reported measurements were obtained from ChEMBL document CHEMBL1125258.

Target: Mu-type opioid receptor (Rattus norvegicus)
Each entry below lists one item and its recorded pIC50 value.
Field pIC50 (float): negative decimal logarithm of the concentration in molar.

INSERT INTO measurements (compound, reported_result) VALUES
  ('C[C@H](c1ccc([N+](=O)[O-])cc1)[C@@H]1NC(=O)CNC(=O)[C@H](NC(=O)[C@@H](N)Cc2ccc(O)cc2)C(C)(C)SSC(C)(C)[C@H](C(=O)O)NC1=O', 6.98),
  ('C[C@@H](c1ccc([N+](=O)[O-])cc1)[C@H]1NC(=O)CNC(=O)[C@H](NC(=O)[C@@H](N)Cc2ccc(O)cc2)C(C)(C)SSC(C)(C)[C@H](C(=O)O)NC1=O', 5.99);

Incoming: // query pIC50 value for entry C[C@H](c1ccc([N+](=O)[O-])cc1)[C@H]1NC(=O)CNC(=O)[C@@H](NC(=O)[C@@H](N)Cc2ccc(O)cc2)C(C)(C)SSC(C)(C)[C@@H](C(=O)O)NC1=O (stereo in doubt; 6)
Outgoing: 5.66

###

Attribute: pKi
Target: Delta-type opioid receptor (Rattus norvegicus, UniProt P33533)
Sequence (P33533 whole entry): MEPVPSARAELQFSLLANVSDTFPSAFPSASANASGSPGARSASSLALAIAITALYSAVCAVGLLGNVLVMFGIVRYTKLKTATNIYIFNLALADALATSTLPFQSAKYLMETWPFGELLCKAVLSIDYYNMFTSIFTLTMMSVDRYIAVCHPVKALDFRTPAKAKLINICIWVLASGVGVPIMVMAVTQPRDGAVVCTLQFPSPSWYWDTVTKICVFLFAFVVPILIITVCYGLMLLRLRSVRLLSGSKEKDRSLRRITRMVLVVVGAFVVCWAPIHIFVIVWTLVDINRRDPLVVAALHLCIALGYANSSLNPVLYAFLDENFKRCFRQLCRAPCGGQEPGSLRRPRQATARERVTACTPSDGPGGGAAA
Assay: Binding affinity measured against [3H]DPDPE (Opioid receptor delta 1 ligand) in rat brain using radioreceptor binding assays.
Scale explanation: pKi corresponds to minus log10 of a concentration expressed in moles per litre.

Look over these answered cases.
INSERT INTO results (molecule, subject_of_test, reported_result) VALUES
  ('C[C@H](c1ccc([N+](=O)[O-])cc1)[C@H]1NC(=O)CNC(=O)[C@@H](NC(=O)[C@@H](N)Cc2ccc(O)cc2)C(C)(C)SSC(C)(C)[C@@H](C(=O)O)NC1=O (stereo in doubt; 6)', 'Delta-type opioid receptor (Rattus norvegicus, UniProt P33533)', 8.26),
  ('C[C@@H](c1ccc([N+](=O)[O-])cc1)[C@H]1NC(=O)CNC(=O)[C@H](NC(=O)[C@@H](N)Cc2ccc(O)cc2)C(C)(C)SSC(C)(C)[C@H](C(=O)O)NC1=O', 'Delta-type opioid receptor (Rattus norvegicus, UniProt P33533)', 6.74),
  ('C[C@H](c1ccc([N+](=O)[O-])cc1)[C@H]1NC(=O)CNC(=O)[C@@H](NC(=O)[C@@H](N)Cc2ccc(O)cc2)C(C)(C)SSC(C)(C)[C@@H](C(=O)O)NC1=O (stereo in doubt; 7)', 'Delta-type opioid receptor (Rattus norvegicus, UniProt P33533)', 6.74);

Incoming: Please look up its pKi: C[C@H](c1ccc([N+](=O)[O-])cc1)[C@@H]1NC(=O)CNC(=O)[C@H](NC(=O)[C@@H](N)Cc2ccc(O)cc2)C(C)(C)SSC(C)(C)[C@H](C(=O)O)NC1=O
Outgoing: 8.47

###

# Ki per record follows
Target: Mu-type opioid receptor (Rattus norvegicus, UniProt P33535)
Sequence (P33535 whole entry): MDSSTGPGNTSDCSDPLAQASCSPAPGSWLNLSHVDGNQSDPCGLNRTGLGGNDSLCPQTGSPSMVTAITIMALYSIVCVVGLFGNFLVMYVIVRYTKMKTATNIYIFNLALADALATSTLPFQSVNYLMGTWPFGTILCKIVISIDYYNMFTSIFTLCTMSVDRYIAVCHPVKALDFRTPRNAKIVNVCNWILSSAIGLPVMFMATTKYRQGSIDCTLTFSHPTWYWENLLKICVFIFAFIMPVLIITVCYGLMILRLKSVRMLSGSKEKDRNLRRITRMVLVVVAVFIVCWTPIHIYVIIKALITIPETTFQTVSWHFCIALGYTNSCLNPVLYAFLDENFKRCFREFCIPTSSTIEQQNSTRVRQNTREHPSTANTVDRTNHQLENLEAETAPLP
Just so you know, I need the unit written after the number.

The examples below pair each entry with its known result.
INSERT INTO results (molecule, reported_result) VALUES
  ('C[C@@H](c1ccc([N+](=O)[O-])cc1)[C@H]1NC(=O)CNC(=O)[C@H](NC(=O)[C@@H](N)Cc2ccc(O)cc2)C(C)(C)SSC(C)(C)[C@H](C(=O)O)NC1=O', '240 nM'),
  ('C[C@H](c1ccc([N+](=O)[O-])cc1)[C@H]1NC(=O)CNC(=O)[C@@H](NC(=O)[C@@H](N)Cc2ccc(O)cc2)C(C)(C)SSC(C)(C)[C@@H](C(=O)O)NC1=O (stereo in doubt; 6)', '530 nM');

Incoming: Form entry - test system: Mu-type opioid receptor (Rattus norvegicus, UniProt P33535); read-out: Ki; molecule: C[C@H](c1ccc([N+](=O)[O-])cc1)[C@@H]1NC(=O)CNC(=O)[C@H](NC(=O)[C@@H](N)Cc2ccc(O)cc2)C(C)(C)SSC(C)(C)[C@H](C(=O)O)NC1=O
Outgoing: 24 nM
